Taken from patent US20150111251A1.

binders and their reported TNFα Neutralization Assay IC50 nM (L929 cells)
Target: Recombinant Human TNF-α/TNFSF1A (human, UniProt P01375 77-233)
Sequence (P01375 77-233 limits assumed): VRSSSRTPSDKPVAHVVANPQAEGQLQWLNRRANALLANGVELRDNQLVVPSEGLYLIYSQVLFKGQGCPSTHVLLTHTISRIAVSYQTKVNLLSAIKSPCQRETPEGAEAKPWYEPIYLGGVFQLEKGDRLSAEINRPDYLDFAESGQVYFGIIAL
Assay: cell-based or functional assay

binder: AB379 (antibody, V domains shown, Full-length humanized antibody made in HEK 293-6E; also called hMAK199VH.2a/hMAK199VL.2a) VH: EIQLVQSGAEVKKPGASVKVSCKASGYTFTNYGMNWVRQAPGQGLEWMGWINTYTGEPTYADDFKGRFTFTLDTSTSTAYMELSSLRSEDTAVYFCARKFLTTVVVTDYAMDYWGQGTTVTVSS VL: DIVMTQSPAFLSVTPGEKVTITCRASQDISNYLNWYQQKPDQTVKLLIYYTSRLQSGVPSRFSGSGSGTDYTFTISSLEAEDAATYFCQQGNTLPPTFGQGTKLEIK
result: > 20 nM
//
binder: AB386 (antibody, V domains shown, Full-length humanized antibody made in HEK 293-6E; also called hMAK199VH.2b/hMAK199VL.2b) VH: EIQLVQSGAEVKKPGASVKVSCKASGYTFTNYGMNWVRQAPGQGLEWMGWINTYTGEPTYADDFKGRVTFTTDTSTSTAYMELSSLRSEDTAVYYCARKFLTTVVVTDYAMDYWGQGTTVTVSS VL: DIVMTQSPAFLSVTPGEKVTITCRASQDISNYLNWYQQKPDQAPKLLIYYTSRLQSGVPSRFSGSGSGTDYTFTISSLEAEDAATYYCQQGNTLPPTFGQGTKLEIK
result: > 20 nM

Now look at this one.
Request: Complete the entry with TNFα Neutralization Assay IC50 nM (L929 cells) for AB376 (antibody, V domains shown, Full-length humanized antibody made in HEK 293-6E; also called hMAK199VH.2a/hMAK199VL.1a) VH: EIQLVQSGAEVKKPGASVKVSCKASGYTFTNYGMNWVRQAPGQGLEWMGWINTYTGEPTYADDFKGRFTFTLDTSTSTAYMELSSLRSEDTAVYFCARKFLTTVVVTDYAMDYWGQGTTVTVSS VL: DIQMTQSPSSLSASVGDRVTITCRASQDISNYLNWYQQKPGKTVKLLIYYTSRLQSGVPSRFSGSGSGTDYTLTISSLQPEDFATYFCQQGNTLPPTFGQGTKLEIK
Result: 3.65 nM
